Hey, just so you know, these numbers are from ChEMBL document CHEMBL1146909.

target: UniProt:P48058; experiment: Activity at human recombinant iGluR4 flop expressed in HEK293 cells measured as change in intracellular calcium ion concentration in presence of glutamate by FLIPR assay; type: functional, cell-based
Sequence (P48058 whole entry): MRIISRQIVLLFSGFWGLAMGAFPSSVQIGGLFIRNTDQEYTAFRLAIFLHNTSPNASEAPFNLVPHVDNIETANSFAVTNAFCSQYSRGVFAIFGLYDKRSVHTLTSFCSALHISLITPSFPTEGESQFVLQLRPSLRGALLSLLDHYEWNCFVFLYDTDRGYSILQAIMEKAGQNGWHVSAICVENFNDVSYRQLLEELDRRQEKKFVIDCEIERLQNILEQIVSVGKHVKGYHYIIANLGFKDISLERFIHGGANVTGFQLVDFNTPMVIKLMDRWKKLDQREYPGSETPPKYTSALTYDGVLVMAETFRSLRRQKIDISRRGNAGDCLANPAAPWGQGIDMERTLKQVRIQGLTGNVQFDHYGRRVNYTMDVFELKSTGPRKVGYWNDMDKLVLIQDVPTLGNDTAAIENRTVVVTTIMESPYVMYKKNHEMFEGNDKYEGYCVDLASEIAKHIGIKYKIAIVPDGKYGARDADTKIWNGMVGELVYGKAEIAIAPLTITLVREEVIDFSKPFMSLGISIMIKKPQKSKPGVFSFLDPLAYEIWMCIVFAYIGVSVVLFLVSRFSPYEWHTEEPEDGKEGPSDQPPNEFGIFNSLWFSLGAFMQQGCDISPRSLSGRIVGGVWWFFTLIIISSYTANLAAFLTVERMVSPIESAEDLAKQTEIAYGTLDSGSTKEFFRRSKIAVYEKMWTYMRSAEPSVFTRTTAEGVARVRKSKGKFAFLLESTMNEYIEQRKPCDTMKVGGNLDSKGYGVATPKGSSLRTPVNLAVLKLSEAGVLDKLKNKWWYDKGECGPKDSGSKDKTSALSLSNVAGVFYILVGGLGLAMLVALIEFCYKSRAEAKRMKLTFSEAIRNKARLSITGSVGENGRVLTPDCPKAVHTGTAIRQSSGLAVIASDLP
Flag rule - EC50 less than 1 µM flags Condition met; the remaining entries get Condition not met.

Exercise: Item CCc1c(C#N)c(-c2ccc(-c3ccccc3C#N)cc2)c(C(=O)O)n1C : EC50 beneath 1 µM, strictly?
Solution: Condition met

Exercise: Item CSc1c(C#N)c(-c2ccc(-c3ccccc3)cc2)c(C(=O)O)n1C : EC50 beneath 1 µM, strictly?
Solution: Condition not met

Exercise: Item CCc1c(C#N)c(-c2ccc(-c3cccc(F)c3)cc2)c(C(=O)O)n1C : EC50 beneath 1 µM, strictly?
Solution: Condition not met

Exercise: Item CC(C)Sc1c(C#N)c(-c2ccc(-c3ccccc3)cc2)c(C(=O)O)n1C : EC50 beneath 1 µM, strictly?
Solution: Condition not met

Exercise: Item CCc1c(C#N)c(-c2ccc(-c3ccccc3Cl)cc2)c(C(=O)O)n1C : EC50 beneath 1 µM, strictly?
Solution: Condition met

Exercise: Item CCc1c(C#N)c(-c2ccc(-c3ccccc3C)cc2)c(C(=O)O)n1C : EC50 beneath 1 µM, strictly?
Solution: Condition not met

Exercise: Item CCc1c(C#N)c(-c2ccc(-c3ccccc3)cc2)c(C(=O)O)n1C : EC50 beneath 1 µM, strictly?
Solution: Condition not met

Exercise: Item Cn1c(Br)c(C#N)c(-c2ccc(-c3ccccc3)cc2)c1C(=O)O : EC50 beneath 1 µM, strictly?
Solution: Condition not met

Exercise: Item CSc1sc(C(=O)O)c(-c2ccc(C(C)(C)C)cc2)c1C#N : EC50 beneath 1 µM, strictly?
Solution: Condition not met

Exercise: Item CCc1c(C#N)c(-c2ccc(-c3ccccc3F)cc2)c(C(=O)O)n1C : EC50 beneath 1 µM, strictly?
Solution: Condition met

###

biological target: Glutamate receptor 2 (Homo sapiens, UniProt P42262); assay: Activity at human recombinant iGluR2 flip expressed in HEK293 cells measured as change in intracellular calcium ion concentration in presence of glutamate by FLIPR assay; format: functional, cell-based
Sequence (P42262 whole entry): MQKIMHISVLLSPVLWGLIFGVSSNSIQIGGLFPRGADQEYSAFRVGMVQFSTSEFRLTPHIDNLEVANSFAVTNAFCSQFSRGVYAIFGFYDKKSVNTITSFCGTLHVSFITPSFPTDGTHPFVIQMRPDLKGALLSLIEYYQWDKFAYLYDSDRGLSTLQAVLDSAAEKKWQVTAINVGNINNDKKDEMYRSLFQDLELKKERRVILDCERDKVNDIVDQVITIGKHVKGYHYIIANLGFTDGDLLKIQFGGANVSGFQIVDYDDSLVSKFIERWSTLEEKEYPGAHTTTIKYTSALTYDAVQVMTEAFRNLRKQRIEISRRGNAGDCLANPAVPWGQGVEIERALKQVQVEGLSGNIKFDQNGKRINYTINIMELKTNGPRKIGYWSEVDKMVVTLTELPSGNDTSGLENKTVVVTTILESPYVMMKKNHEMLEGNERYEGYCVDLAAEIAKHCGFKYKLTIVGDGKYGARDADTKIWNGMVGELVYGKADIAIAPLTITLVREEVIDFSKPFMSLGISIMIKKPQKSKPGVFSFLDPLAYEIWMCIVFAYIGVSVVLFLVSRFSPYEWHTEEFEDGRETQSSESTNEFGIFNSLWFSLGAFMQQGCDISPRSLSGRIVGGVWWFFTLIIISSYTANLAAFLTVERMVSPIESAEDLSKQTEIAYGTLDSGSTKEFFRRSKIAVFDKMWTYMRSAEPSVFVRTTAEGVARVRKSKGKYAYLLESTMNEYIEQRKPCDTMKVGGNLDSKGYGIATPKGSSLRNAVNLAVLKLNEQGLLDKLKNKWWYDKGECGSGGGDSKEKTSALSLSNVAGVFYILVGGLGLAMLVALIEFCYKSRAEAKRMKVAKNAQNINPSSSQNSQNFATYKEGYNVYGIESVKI
Give measured pEC50 for each item. Keep answers brief.
Note: pEC50 values are expressed as the negative base-10 logarithm of concentration in M.

Exercise: Using the record for CCc1c(C#N)c(-c2ccc(-c3cccc(F)c3)cc2)c(C(=O)O)n1C , state its measured pEC50.
Solution: 6.37

Exercise: Using the record for CCc1c(C#N)c(-c2ccc(-c3ccc(C)cc3)cc2)c(C(=O)O)n1C , state its measured pEC50.
Solution: 6.39

Exercise: Using the record for CSc1c(C#N)c(-c2ccc(-c3ccccc3)cc2)c(C(=O)O)n1C , state its measured pEC50.
Solution: 6.76

Exercise: Using the record for CCc1c(C#N)c(-c2ccc(-c3ccc(F)cc3)cc2)c(C(=O)O)n1C , state its measured pEC50.
Solution: 6.46

Exercise: Using the record for CCc1c(C#N)c(-c2ccc(-c3ccccc3C)cc2)c(C(=O)O)n1C , state its measured pEC50.
Solution: 6.57

Exercise: Using the record for CCc1c(C#N)c(-c2ccc(-c3ccccc3SC)cc2)c(C(=O)O)n1C , state its measured pEC50.
Solution: 7.24

Exercise: Using the record for CCOc1ccccc1-c1ccc(-c2c(C#N)c(CC)n(C)c2C(=O)O)cc1 , state its measured pEC50.
Solution: 7.08

Exercise: Using the record for CCc1c(C#N)c(-c2ccc(-c3cccc(OC)c3)cc2)c(C(=O)O)n1C , state its measured pEC50.
Solution: 6.41

Exercise: Using the record for Cc1c(C#N)c(-c2ccc(-c3ccccc3)cc2)c(C(=O)O)n1C , state its measured pEC50.
Solution: 6.51

Exercise: Using the record for CCc1c(C#N)c(-c2ccc(-c3cccc(C#N)c3)cc2)c(C(=O)O)n1C , state its measured pEC50.
Solution: 6.40

Exercise: Using the record for CCc1c(C#N)c(-c2ccc(-c3ccccc3Cl)cc2)c(C(=O)O)n1C , state its measured pEC50.
Solution: 7.38

Exercise: Using the record for CSc1sc(C(=O)O)c(-c2ccc(C(C)(C)C)cc2)c1C#N , state its measured pEC50.
Solution: 7.01

Exercise: Using the record for CCc1c(C#N)c(-c2ccc(-c3ccc(OC)cc3)cc2)c(C(=O)O)n1C , state its measured pEC50.
Solution: 6.37

Exercise: Using the record for CCc1c(C#N)c(-c2ccc(-c3ccccc3OC)cc2)c(C(=O)O)n1C , state its measured pEC50.
Solution: 6.55
